Hello, the source for this data is patent US20240059799A1, in case you need it.

# Study System: T1, recombinant human TL1A (human, UniProt O95150 71-251)
# T1 construct: The ELISA method says only 'recombinant TL1A' coated on plates; homotrimeric cytokine; also called TNFSF15; recombinant TL1A
# T1 chain: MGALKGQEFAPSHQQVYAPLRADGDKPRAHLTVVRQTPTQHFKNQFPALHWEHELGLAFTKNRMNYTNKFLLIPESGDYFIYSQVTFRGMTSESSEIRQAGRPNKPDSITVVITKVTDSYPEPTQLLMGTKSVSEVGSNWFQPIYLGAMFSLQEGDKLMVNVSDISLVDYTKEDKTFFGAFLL
# Test: competition ELISA on coated recombinant TL1A; competitor biotinylated TL1A-0002
The following binders are listed with their measured Bioactivity relative to TL1A-0002 values.
Give your result in fold as a bare value.

[
  {
    "Binder": "TL1A-0265 (antibody, human IgG1, kappa, V domains shown, human IgG1 effector-function-minimized / human kappa) VH: QVQLVQSGAEVKKPGASVKVSCKASGYDYTYYGISWVRQAPGQGLEWMGWISTYNTVTHYAPSLQGRVTMTTDTSTSTAYMELRSLRSDDTAVYYCARESYYGSGAHRGGMDVWGQGTTVTVSS VL: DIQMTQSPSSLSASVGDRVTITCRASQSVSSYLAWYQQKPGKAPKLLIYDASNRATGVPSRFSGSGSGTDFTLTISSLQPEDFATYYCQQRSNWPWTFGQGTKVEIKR",
    "Test Readout": "Bioactivity relative to TL1A-0002",
    "Readout Units": "fold",
    "Result": 1.7
  },
  {
    "Binder": "TL1A-0245 (antibody, V domains shown, IgG1 effector-minimized/kappa) VH: QVQLVQSGAEVKKPGASVKVSCKASGYDFTYYGISWVRQAPGQGLEWMGWISTYNDNTHYAQKLQGRVTMTTDTSTSTAYMELRSLRSDDTAVYYCARESYYGSGAHRGGMDVWGQGTTVTVSS VL: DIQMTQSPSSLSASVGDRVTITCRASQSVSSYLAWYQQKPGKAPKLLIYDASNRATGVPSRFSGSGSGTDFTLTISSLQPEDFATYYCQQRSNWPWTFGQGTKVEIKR",
    "Test Readout": "Bioactivity relative to TL1A-0002",
    "Readout Units": "fold",
    "Result": 3.2
  }
]

TL1A-0247 (antibody, V domains shown, IgG1 effector-minimized/kappa) VH: QVQLVQSGAEVKKPGASVKVSCKASGYDFTYYGISWVRQAPGQGLEWMGWISTYNTGTHYAPSLQGRVTMTTDTSTSTAYMELRSLRSDDTAVYYCARESYYGSGAHRGGMDVWGQGTTVTVSS VL: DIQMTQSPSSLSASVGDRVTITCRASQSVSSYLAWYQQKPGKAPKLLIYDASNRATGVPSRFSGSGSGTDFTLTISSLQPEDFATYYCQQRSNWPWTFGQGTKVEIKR has a reported Bioactivity relative to TL1A-0002 of 2.4

TL1A-0311 (antibody, V domains shown, IgG1 effector-minimized/kappa) VH: QVQLVQSGAEVKKPGASVKVSCKASGYDFTYYGIGWVRQAPGQGLEWMGWISTYGGNTHYAPSLQGRVTMTTDTSTSTAYMELRSLRSDDTAVYYCARESYYGSGAHRGGMDVWGQGTTVTVSS VL: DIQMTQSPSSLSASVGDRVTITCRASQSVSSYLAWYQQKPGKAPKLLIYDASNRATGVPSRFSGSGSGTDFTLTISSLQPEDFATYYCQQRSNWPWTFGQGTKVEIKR has a reported Bioactivity relative to TL1A-0002 of 6

TL1A-0243 (antibody, V domains shown, IgG1 effector-minimized/kappa) VH: QVQLVQSGAEVKKPGASVKVSCKASGYDFTYYGISWVRQAPGQGLEWMGWISTYNDNTHYAPSLQGRVTMTTDTSTSTAYMELRSLRSDDTAVYYCARESYYGSGAHRGGMDVWGQGTTVTVSS VL: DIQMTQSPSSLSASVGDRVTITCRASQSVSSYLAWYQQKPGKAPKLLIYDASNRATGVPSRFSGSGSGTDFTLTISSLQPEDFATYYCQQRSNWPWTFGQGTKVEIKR has a reported Bioactivity relative to TL1A-0002 of 2.9

TL1A-0260 (antibody, human IgG1, kappa, V domains shown, human IgG1 effector-function-minimized / human kappa) VH: QVQLVQSGAEVKKPGASVKVSCKASGYDYTYYGISWVRQAPGQGLEWMGWISTYNTGTHYAPSLQGRVTMTTDTSTSTAYMELRSLRSDDTAVYYCARESYYGSGAFRGGMDVWGQGTTVTVSS VL: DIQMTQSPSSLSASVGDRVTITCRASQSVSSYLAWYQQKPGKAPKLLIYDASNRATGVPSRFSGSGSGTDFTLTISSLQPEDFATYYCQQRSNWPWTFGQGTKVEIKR has a reported Bioactivity relative to TL1A-0002 of 1.3

TL1A-0259 (antibody, V domains shown, IgG1 effector-minimized/kappa) VH: QVQLVQSGAEVKKPGASVKVSCKASGYDYTYYGISWVRQAPGQGLEWMGWISTYNDNTHYAQKLQGRVTMTTDTSTSTAYMELRSLRSDDTAVYYCARESYYGSGAHRGGMDVWGQGTTVTVSS VL: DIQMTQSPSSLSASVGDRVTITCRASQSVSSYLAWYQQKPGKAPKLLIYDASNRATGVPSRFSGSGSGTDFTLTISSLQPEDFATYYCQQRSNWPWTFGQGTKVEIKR has a reported Bioactivity relative to TL1A-0002 of 3.7

TL1A-0262 (antibody, human IgG1, kappa, V domains shown, human IgG1 effector-function-minimized / human kappa) VH: QVQLVQSGAEVKKPGASVKVSCKASGYDYTYYGISWVRQAPGQGLEWMGWISTYNTGTHYAQKLQGRVTMTTDTSTSTAYMELRSLRSDDTAVYYCARESYYGSGAFRGGMDVWGQGTTVTVSS VL: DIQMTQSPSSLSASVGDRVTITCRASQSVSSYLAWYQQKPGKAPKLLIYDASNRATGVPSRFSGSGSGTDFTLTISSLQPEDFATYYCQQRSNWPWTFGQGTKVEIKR has a reported Bioactivity relative to TL1A-0002 of 1.4

TL1A-0261 (antibody, human IgG1, kappa, V domains shown, human IgG1 effector-function-minimized / human kappa) VH: QVQLVQSGAEVKKPGASVKVSCKASGYDYTYYGISWVRQAPGQGLEWMGWISTYNTGTHYAPSLQGRVTMTTDTSTSTAYMELRSLRSDDTAVYYCARESYYGSGAHRGGMDVWGQGTTVTVSS VL: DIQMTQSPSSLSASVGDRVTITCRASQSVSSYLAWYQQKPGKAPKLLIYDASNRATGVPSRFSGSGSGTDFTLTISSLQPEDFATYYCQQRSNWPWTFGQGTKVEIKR has a reported Bioactivity relative to TL1A-0002 of 1.1

TL1A-0042 (antibody, human IgG1, kappa, V domains shown, TL1A-0002 heavy chain with light chain CDRs grafted onto IGKV1-39*01; human IgG1 effector-function-minimized / human kappa) VH: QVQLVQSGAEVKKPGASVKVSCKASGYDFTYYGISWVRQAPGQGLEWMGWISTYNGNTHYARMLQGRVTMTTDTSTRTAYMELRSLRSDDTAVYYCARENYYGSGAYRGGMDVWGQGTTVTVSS VL: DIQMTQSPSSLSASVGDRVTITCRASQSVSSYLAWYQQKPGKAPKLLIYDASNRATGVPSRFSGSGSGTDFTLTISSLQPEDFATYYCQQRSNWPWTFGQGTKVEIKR has a reported Bioactivity relative to TL1A-0002 of 0.8
